Cited source: patent EP0907364B1

measurement-description: physchem
experimental-conditions: 20 °C, water, thermodynamic from solid
readout-type: solubility thermodynamic
Kindly write the number and append the unit.

Item under review: "OCCOCCN1CCN(C2=Nc3ccccc3Sc3ccccc32)CC1" . Reported solubility thermodynamic?
3290 µg/mL
